tested on: TA97; assay: Ames test, strain TA97; assay type: cell-based; settings: 500 μg/dish
result type: TA97 +S9

{"compound": "O=c1c2cc(F)ccc2[se]n1-c1cccnc1 [IMM-128]", "result type": "TA97 +S9", "value measured": 78.50}
{"compound": "O=c1c2cc(F)ccc2[se]n1-c1ccccn1 [IMM-127]", "result type": "TA97 +S9", "value measured": 48.00}
{"compound": "O=c1c2ccc(Cl)cc2[se]n1-c1ccncc1 [IMM-313]", "result type": "TA97 +S9", "value measured": 0}
{"compound": "O=c1c2cc(Cl)ccc2[se]n1-c1ccccn1 [IMM-004]", "result type": "TA97 +S9", "value measured": 67.33}
{"compound": "C/C(=N\\O)c1ccc(-n2[se]c3ccccc3c2=O)cc1 [IMM-065]", "result type": "TA97 +S9", "value measured": 0}
